B1: tRNA (parent)
chain: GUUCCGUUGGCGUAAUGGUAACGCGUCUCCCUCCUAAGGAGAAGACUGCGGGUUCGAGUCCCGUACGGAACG

# Variants of: B1
# experiment.description: yeast fitness relative to wild type (ratio to wild type); higher = fitter; tRNA-Arg(CCU), competitive growth, 37 C, YPD
Variants at the floor of the assay were thinned out.
Quick list: yeast fitness per entry.
Simply state the number, no unit and no words.

seq_string=GUUCCGUUGGCGUAAUGGUAACGCGUCUCCCUCGUAAGGAGAAGACGGCGGGUUCGAGUCCCGUACGGAACG measured_number=0.561
seq_string=GUUACGUUGGCGUAAUGGUAACGCGUCUCCCUCCUAAGGAGAAGACUGCGGAUUCGAGUCCCGUACGGAACG measured_number=0.884
seq_string=GUUCCGUUGGCGUAAUGGUAACGCGUCUCCCUCCUCAGGAGAAGCCUGCGGGUACGCGUCCCGUACGGAACG measured_number=0.538
seq_string=GUUCCGUUGGCGUAAUGGUAACGAGUCUCCCUCCUAAGGAGAAGACUGCGGGUUAGAGUCCUGUCCGGAACG measured_number=0.529
seq_string=GUUCCGUUGGCGUAAUGGUAACGCGUCUCCCUCCUAAGAAGAAGACUGCGGGUUCGAGUCCCGUACCGAACG measured_number=0.825

yeast fitness for GUACCGUUGGCGUAAUGGUAACGCGUCUCACUCCUAAGGAGAAGACUGCGGGUUCGAGUCCCGUACGGAACG is 0.834

yeast fitness for GUUCCGUUGGCGUAAUGGCAACGCGUCUCCCUCCUAACGAGAACAAUGCGGGUUCGAGUCCCGUACGGAGCG is 0.574
